Target: cyno ST2L (cyno)
Assay: affinity table; method not stated
PROPERTY MEASURED: Kd (nM)
Lab book: enter the figure in nM, no units written.

Examples from the recorded data:
Please indicate Kd recorded for STLM232 (antibody, from another filing, V domains shown) VH: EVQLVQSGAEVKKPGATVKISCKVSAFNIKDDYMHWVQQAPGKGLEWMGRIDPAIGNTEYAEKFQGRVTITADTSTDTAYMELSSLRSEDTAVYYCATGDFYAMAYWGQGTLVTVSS VL: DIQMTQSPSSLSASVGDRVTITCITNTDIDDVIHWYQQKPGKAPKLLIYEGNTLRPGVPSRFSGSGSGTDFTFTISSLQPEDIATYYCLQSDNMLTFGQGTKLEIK 0.08

Name the recorded Kd of the item STLM222 (antibody, from another filing, V domains shown) VH: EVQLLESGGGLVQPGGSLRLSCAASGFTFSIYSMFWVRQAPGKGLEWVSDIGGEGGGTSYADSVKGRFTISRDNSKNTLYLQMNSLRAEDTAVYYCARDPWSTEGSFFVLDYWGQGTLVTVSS VL: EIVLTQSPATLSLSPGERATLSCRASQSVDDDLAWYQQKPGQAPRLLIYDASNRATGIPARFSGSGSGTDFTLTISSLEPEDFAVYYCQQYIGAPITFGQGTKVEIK in your answer. 0.029

Kindly consider the entry below.
Report Kd for STLM218 (antibody, from another filing, V domains shown) VH: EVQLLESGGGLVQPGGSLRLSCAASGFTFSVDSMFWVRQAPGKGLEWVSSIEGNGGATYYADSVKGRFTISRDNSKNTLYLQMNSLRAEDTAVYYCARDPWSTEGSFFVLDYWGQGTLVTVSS VL: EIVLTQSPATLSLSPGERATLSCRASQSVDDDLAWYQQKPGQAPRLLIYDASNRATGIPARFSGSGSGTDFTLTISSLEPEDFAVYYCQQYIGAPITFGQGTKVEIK 0.018
